assay.protocol: CLND Solubility Assay
Type: physicochemical
test.context: aqueous buffer, kinetic from dmso stock; 35 μM compound in 10 mM phosphate buffer, pH 7.2
property.label: solubility (µM)

a = CNC(=O)c1cnc(N)c2c(-c3ccc(NC(=O)Nc4cccc(C)c4)cc3)csc12 [Example 2]
b = CCN(CC)CCCNC(=O)c1cnc(N)c2c(-c3ccc(NC(=O)Nc4cccc(F)c4)cc3)csc12 [Example 1]
Given the two records a and b , choose the one whose solubility value is lower. Pick one; state its label.
a

---

target.of.assay: Aurora B (Homo sapiens, UniProt Q96GD4)
Construct: Active Aurora B enzyme (recombinant residues 1-344)
Sequence (Q96GD4 whole entry, the tested form may be a part): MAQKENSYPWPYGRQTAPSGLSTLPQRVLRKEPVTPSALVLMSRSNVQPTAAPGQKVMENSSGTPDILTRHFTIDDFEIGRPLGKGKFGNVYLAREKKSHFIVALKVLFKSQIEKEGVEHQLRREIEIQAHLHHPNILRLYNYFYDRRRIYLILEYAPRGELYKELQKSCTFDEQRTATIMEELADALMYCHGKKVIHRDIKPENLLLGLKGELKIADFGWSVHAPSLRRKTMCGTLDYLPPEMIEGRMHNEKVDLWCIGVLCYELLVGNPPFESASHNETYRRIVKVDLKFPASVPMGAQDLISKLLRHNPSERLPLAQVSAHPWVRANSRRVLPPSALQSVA
Sequence (Q9NQS7 803-918 partner limits assumed): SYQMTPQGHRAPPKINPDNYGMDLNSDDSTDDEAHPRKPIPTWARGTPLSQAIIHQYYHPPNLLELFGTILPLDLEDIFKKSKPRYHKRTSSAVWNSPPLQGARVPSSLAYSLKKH
assay.protocol: Aurora B enzyme assay (time-resolved fluorescence)
test.context: 1 mM ATP, with INCENP
property.label: IC50 (nM)
API: value field is a number in nM; no unit string.

Fill in IC50 for record CNC(=O)c1cnc(N)c2c(-c3ccc(NC(=O)Nc4cccc(C)c4)cc3)csc12
1.3

---

target.of.assay: UniProtKB P08684
Sequence (P08684 whole entry): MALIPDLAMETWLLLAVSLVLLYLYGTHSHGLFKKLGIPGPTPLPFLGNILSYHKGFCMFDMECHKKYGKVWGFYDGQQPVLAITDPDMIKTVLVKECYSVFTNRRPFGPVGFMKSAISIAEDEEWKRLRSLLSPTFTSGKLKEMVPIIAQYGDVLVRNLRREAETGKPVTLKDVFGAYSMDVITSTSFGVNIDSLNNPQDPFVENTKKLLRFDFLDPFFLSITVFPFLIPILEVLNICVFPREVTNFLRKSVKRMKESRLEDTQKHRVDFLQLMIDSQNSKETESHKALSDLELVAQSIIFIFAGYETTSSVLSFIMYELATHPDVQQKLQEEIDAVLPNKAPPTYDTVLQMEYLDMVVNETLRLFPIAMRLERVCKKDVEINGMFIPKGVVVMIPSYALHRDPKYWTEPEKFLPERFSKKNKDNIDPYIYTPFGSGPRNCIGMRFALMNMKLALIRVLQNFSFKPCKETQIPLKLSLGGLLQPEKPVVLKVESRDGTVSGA
pIC50: −log10 of the molar value.
property.label: pIC50

Fill in pIC50 for record CNC(=O)c1cnc(N)c2c(-c3ccc(NC(=O)Nc4cccc(C)c4)cc3)csc12
< 4.70
